Data credit: patent US9309242B2

test_target: FGFR3 (h) (Homo sapiens)
Sequence (P22607 23-806): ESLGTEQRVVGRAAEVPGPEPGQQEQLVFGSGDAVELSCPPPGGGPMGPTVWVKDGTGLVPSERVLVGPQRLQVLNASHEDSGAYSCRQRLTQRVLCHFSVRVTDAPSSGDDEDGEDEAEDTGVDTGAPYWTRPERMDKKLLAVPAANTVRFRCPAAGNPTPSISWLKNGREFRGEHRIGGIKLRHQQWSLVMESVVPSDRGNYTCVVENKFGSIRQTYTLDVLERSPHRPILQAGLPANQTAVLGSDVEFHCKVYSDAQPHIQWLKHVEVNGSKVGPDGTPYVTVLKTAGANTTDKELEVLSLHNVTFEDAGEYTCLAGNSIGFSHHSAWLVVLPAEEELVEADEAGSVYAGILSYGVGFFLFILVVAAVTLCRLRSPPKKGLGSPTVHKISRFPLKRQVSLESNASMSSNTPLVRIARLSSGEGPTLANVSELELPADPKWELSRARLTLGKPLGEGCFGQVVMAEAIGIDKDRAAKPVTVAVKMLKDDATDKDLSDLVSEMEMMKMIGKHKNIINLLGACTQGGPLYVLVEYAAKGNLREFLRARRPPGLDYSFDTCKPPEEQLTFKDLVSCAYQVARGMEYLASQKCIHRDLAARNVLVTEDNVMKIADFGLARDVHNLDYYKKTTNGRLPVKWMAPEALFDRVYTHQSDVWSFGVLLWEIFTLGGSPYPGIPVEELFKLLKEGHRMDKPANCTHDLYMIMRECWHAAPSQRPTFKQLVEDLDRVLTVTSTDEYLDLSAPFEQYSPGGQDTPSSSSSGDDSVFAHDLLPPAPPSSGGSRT
protocol: FGFR3 (enzymatic assay), TR-FRET
Format: biochemical
condition_set: read-out: FGFR 3 pIC50 (converted)
Please respond with MET when measured IC50 is strictly beneath 3 nM, and with NOT MET in all other cases.

Example results:
COc1cc(OC)c(F)c(N(Cc2noc(C)n2)c2ccc3ncc(-c4cnn(C)c4)nc3n2)c1 ... MET
COc1cc(OC)cc(N(Cc2nnc(NCCO)o2)c2ccc3ncc(-c4cnn(C)c4)nc3n2)c1 ... NOT MET

Is IC50 strictly under 3 nM for the entry COc1cc(OC)c(F)c(N(Cc2cc(C)on2)c2ccc3ncc(-c4cnn(C)c4)nc3n2)c1 ? MET

Is IC50 strictly under 3 nM for the entry COc1cc(OC)cc(N(Cc2noc(C)n2)c2ccc3ncc(-c4cnn(C)c4)nc3n2)c1 ? MET

Is IC50 strictly under 3 nM for the entry COc1cc(/N=c2\ccc3ncc(-c4cnn(C)c4)nc3n2Cc2cnn(C)c2)c(F)c(OC)c1 ? MET

Is IC50 strictly under 3 nM for the entry Cn1cc(-c2cnc3ccc(N(Cc4ncc[nH]4)c4c(F)c(F)cc(F)c4F)nc3n2)cn1 ? MET

Is IC50 strictly under 3 nM for the entry COc1cc(OC)c(F)c(N(CCO)c2ccc3ncc(-c4cnn(CCO)c4)nc3n2)c1 ? MET

Is IC50 strictly under 3 nM for the entry COc1cc(/N=c2\ccc3ncc(-c4cnn(C)c4)nc3n2CCNC(C)=O)c(F)c(OC)c1 ? MET

Is IC50 strictly under 3 nM for the entry COc1cc(OC)c(F)c(N(c2ccc3ncc(-c4cnn(C)c4)nc3n2)C(C)c2ncc[nH]2)c1 (stereo not shown) ? MET
